IC50, PI3-Kα (Mus musculus (Mouse), UniProt P42337): measured values
Quick note: give the figure in nM, leave out the unit.

Provide the documented IC50 with PI3-Kα (Mus musculus (Mouse), UniProt P42337) as the system for Cc1nc(N)nc2c1cc(-c1cn[nH]c1)c(=O)n2N1CCCC1 [Compound 193]
Sequence (P42337 whole entry): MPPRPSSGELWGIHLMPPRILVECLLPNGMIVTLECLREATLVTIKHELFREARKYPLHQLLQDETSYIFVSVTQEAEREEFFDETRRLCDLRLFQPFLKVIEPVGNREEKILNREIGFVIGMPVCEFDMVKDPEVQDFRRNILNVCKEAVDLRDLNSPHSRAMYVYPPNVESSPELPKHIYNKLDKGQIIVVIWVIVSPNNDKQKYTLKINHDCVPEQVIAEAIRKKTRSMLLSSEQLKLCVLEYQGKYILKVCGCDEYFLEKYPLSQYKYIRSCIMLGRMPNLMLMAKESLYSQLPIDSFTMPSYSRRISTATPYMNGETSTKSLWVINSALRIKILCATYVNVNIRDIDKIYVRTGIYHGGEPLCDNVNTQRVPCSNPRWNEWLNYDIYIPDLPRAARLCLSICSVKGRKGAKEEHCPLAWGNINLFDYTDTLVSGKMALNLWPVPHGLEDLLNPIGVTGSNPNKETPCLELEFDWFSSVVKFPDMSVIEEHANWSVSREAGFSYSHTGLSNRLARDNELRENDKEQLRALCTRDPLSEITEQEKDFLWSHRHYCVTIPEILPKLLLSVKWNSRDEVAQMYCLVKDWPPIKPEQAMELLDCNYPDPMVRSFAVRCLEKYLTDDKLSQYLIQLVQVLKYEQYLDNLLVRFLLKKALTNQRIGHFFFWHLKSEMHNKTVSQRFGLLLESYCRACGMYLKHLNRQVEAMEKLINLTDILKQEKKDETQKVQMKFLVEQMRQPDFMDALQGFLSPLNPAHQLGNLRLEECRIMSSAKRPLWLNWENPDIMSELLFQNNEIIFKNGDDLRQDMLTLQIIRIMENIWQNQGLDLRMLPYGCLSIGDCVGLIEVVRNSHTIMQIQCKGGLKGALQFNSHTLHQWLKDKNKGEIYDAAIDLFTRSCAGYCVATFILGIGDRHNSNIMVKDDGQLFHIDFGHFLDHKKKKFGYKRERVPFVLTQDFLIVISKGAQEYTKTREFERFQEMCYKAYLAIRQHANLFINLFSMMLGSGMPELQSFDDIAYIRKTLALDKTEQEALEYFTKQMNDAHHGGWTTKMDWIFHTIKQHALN
Sequence (P26450 whole entry partner): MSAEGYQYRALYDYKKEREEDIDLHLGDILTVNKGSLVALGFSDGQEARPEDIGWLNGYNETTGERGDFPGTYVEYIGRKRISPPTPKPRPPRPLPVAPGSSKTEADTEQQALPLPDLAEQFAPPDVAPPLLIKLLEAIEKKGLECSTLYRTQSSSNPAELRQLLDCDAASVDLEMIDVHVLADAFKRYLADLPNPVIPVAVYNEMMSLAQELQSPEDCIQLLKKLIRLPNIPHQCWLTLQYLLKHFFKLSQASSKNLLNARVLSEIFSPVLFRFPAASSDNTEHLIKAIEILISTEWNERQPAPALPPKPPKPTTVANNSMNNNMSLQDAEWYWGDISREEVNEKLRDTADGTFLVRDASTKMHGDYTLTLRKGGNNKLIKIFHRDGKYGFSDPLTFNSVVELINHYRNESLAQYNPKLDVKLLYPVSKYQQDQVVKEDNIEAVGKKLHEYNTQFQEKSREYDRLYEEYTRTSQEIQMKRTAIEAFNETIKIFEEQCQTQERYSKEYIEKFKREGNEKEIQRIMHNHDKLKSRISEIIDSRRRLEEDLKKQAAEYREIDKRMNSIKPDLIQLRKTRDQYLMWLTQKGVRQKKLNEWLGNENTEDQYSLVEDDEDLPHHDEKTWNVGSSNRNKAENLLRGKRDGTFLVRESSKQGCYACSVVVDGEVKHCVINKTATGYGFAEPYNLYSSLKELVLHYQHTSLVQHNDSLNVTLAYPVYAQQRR
28

Also Cc1nc(N)nc2c1cc(-c1cn[nH]c1)c(=O)n2C1CC1 [Compound 211] ?
78

What about this compound? Cc1nc(N)nc2c1cc(Br)c(=O)n2CC1CCOC1 (stereo not drawn) [Compound 218]
94

# repeat for CNc1nc(C)c2cc(-c3ccc(OC)nc3)c(=O)n(C(C)C)c2n1 [Compound 113]
21

Similarly, CCN(CC)C(=O)OCn1cc(-c2cc3c(C)nc(N)nc3n(C(C)C)c2=O)nn1 [Compound 263] ?
3300

Similarly, CNc1nc(C)c2cc(-c3cn[nH]c3)c(=O)n(CC3CCOC3)c2n1 (stereo not drawn) [Compound 215] ?
6

Record: COc1cccc(-c2cc3c(C)nc(N)nc3n(C3CCCC3)c2=O)c1 [Compound 145]
168

Note, next up: Cc1nc(N)nc2c1cc(-c1cnc3[nH]ccc3c1)c(=O)n2C1CCC1 [Compound 207]
2

Moving on to CNc1nc(C)c2cc(-c3ncccc3F)c(=O)n(C3CCCC3)c2n1 [Compound 134]
2100

And the next one, COc1ccc(-c2cc3c(C)nc(N)nc3n([C@H]3C[C@H](OCC(N)=O)C3)c2=O)cn1 [Compound 317] ?
4.72

Next compound up: COc1ccc(-c2cc3c(C)nc(N)nc3n(CCN)c2=O)cn1 [Compound 238]
340

Let us now turn to Cc1nc(N)nc2c1cc(-c1cn[nH]c1)c(=O)n2C1CN(C(=O)OC(C)(C)C)C1 [Compound 226]
120

Here is the next compound: COc1ccc(-c2cc3c(C)nc(N)nc3n(C3CCCC3)c2=O)cc1F [Compound 262]
15

Please do the same for COc1ccc(-c2cc3c(C)nc(N)nc3n(CC3CCOCC3)c2=O)cn1 [Compound 242] as well.
15

And what about the compound COc1ncc(-c2cc3c(C)nc(N)nc3n(C3CCOCC3)c2=O)cn1 [Compound 259] ?
45

And the next one, Cc1nc(N)nc2c1cc(-c1cn[nH]c1)c(=O)n2CC(F)(F)F [Compound 197] ?
188

Follow-up entry: COc1ncccc1-c1cc2c(C)nc(N)nc2n(C2CCCC2)c1=O [Compound 126]
856

Entry CNc1nc(C)c2cc(-c3cnc4[nH]ccc4c3)c(=O)n(CC3CCOC3)c2n1 (stereo not drawn) [Compound 217] please
1.6

###

Provide the recorded inhibition at 10 µM for the entries that follow.
biological target: UniProt:P42337; assay: PI3-Kα Biochemical Assay (fluorescence polarization kinase assay); conditions: at 10 μM
Give the value in % but do not write % after it.

# inhibition at 10 µM lookup, item CCNc1nc(C)c2cc(CCC(=O)N(CC)CC)c(=O)n(C3CCCC3)c2n1
32

How about this compound: CNc1nc(C)c2cc(-c3ccc(OC)nc3)c(=O)n(C3CCC3)c2n1
99

// next record CNc1nc(C)c2cc(-c3ccc(O)c(OC)c3)c(=O)n(C3CCCC3)c2n1
99

Lookup CNc1nc(C)c2cc(-c3cc(CN)ccc3F)c(=O)n(C3CCCC3)c2n1
43
